assay.protocol: Selectivity index, ratio of IC50 for african green monkey Vero cells to MIC90 for Mycobacterium tuberculosis H37Rv
Type: toxicity, cell-based
test.parameters: read-out: Selectivity Index
outcome.measure: selectivity ratio
Provide a numeric answer; units are not to be included.

Identify measured selectivity ratio associated with CC(C)=CCc1cc2c(cc1O)[nH]c1ccc(C)cc12 [SIAMENOL]
0.7

Assign selectivity ratio to the following record: COC(=O)c1ccc2[nH]c3cc(O)ccc3c2c1 [CLAUSINE M]
1.8

Output selectivity ratio of O=Cc1cc2c(cc1O)[nH]c1cc(O)ccc12 [CLAUSINE O]
1.3

Output measured selectivity ratio for this item: Cc1ccc2[nH]c3ccc(O)cc3c2c1 [GLYCOZOLININE]
0.5

* * *

assay.protocol: Selectivity index, ratio of IC50 for african green monkey Vero cells to MIC90 for Mycobacterium tuberculosis H37Rv
Format: toxicity, cell-based
test.parameters: read-out: Selectivity Index
For each record, write down the corresponding selectivity ratio.

Name the recorded selectivity ratio of the item COC1=C(C)C(=O)c2[nH]c3ccccc3c2C1=O in your answer.
> 16

Retrieve selectivity ratio measured for COc1ccc2c(c1)[nH]c1cc(OC)c(C(=O)O)cc12 and print it.
< 0.2

Tell me selectivity ratio reported for COC(=O)c1ccc2[nH]c3ccc(OC)cc3c2c1
> 4

Could you please provide reported selectivity ratio for COc1ccc2[nH]c3ccc(C=O)cc3c2c1Br ? Thanks!
< 0.6

Fill in selectivity ratio for record COc1ccc2c(c1)[nH]c1cc(OC)c(C=O)cc12
< 0.8

Tell me measured selectivity ratio for NNC(=O)c1ccncc1 please.
> 320
